assayed.target: T1, recombinant biotinylated PD-L1 (rhPD-L1/Fc Chimera, R&D Systems 156-B7) (human, UniProt Q9NZQ7 19-238, biotinylated (sites not given))
T1 construct: Bought Fc chimera; also called human PD-L1
T1 sequence (Q9NZQ7 19-238, change not shown): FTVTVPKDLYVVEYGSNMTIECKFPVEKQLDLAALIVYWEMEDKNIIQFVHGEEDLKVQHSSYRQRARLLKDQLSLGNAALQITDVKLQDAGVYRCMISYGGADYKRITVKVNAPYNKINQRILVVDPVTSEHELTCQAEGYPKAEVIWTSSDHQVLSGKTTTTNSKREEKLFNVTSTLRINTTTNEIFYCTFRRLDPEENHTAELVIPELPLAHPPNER
assay.method.text: ELISA, lysate on plate-bound antigen
Classes by ELISA PD-L1 Fc (RSU): band 1 (below 400000 RSU), band 2 (400000 RSU to below 900000 RSU), band 3 (900000 RSU or more)

Some solved cases for reference:
binder="ISOP194HR9P1B10 (designed binder, not shown: small tags and cut ends, FN3 domain; E. coli lysate in the ELISA) LPAPKNLVVSRVTEDSARLSWTAPDAAFDSFPIRYYERANGEAIVLTVPGSERSYDLTGLKPGTEYIVWIYGVKGGGRSGPLSAIFTT" group="band 1"
binder="ISOP121AR5P1B8 (designed binder, not shown: small tags and cut ends, FN3 domain; E. coli lysate in the ELISA) LPAPKNLVISRVTEDSARLSWDKRTQFAFDSFLIQYQESEKVGEAIVLTVPGSERSYDLTGLKPGTEYTVSIYGVPTWSGRTQSNPLSAIFTT" group="band 2"
binder="ISOP121HR5P1G9 (designed binder, not shown: small tags and cut ends, FN3 domain; E. coli lysate in the ELISA) LPAPKNLVVSRVTEDSARLSWTAPDAAFDSFPINYGERATKGEAINLYVPGSERSYDLTGLKPGTEYWVLIGGVKGGLKSSPLWAWFTT" group="band 1"
binder="ISOP121BR5P1D11 (designed binder, not shown: small tags and cut ends, FN3 domain; E. coli lysate in the ELISA) LPAPKNLVVSRVTEDSARLSWFNADEEYFDSFLIQYQESEKVGEAIVLTVPGSERSYDLTGLKPGTEYTVSIYGVYVRAVRFVSSNPLSAIFTT" group="band 3"
binder="ISOP121BR5P1A2 (designed binder, not shown: small tags and cut ends, FN3 domain; E. coli lysate in the ELISA) LPAPKNLVVSRVTEDSARLSWRFSQEWFDSFLIQYQESEKVGEAIVLTVPGSERSYDLTGLKPGTEYTVSIYGVYARGIHKWLSNPLSAIFTT" group="band 2"
binder="ISOP194ER9P1E6 (designed binder, not shown: small tags and cut ends, FN3 domain; E. coli lysate in the ELISA) LPAPKNLVVSRVTEDSARLSWTAPDAAFDSFWIKYYEKRNPGEAIVLTVPGSERSYDLTGLKPGTEYLVIISGVKGGSRSVPLSAIFTT" group="band 3"

Prompt: Class? Entry: ISOP121AR5P1G10 (designed binder, not shown: small tags and cut ends, FN3 domain; E. coli lysate in the ELISA) LPAPKNLVVSRVTEDSARLSWEWLEHFDSFLIQYQESEKVGEAIVLTVPGSERSYDLTGLKPGTEYTVSIYGVYQRKVEFHSNPLSAIFTTT
Completion: band 1
